target system: c-Src SH2
test details: SH2 binding enrichment of the phosphorylated peptide, bacterial display (enrichment ratio); higher = better substrate or ligand; peptides without Tyr show the background
property: SH2 binding enrichment

// below: answered sequences
>>> print(df.to_string())
                     entry_sequence  target_system                property  recorded_measurement
0   MAFDRYVAICA [OR52J3_Y125_V128I]      c-Src SH2  SH2 binding enrichment                 0.974
1  SRGHQYQELPR [KCNH2_Y1009_R1007H]      c-Src SH2  SH2 binding enrichment                  5.11
2  KDPPDYKFQPR [SOX9_Y172_H169P_YF]      c-Src SH2  SH2 binding enrichment                 0.609

a. GLQDEYDFKCK [STAT1_Y170_D165G]
b. RLLRGYDQLAF [HLA-C_Y137_S140L_YF]
Sort a and b by SH2 binding enrichment descending and give the first. Indicate your choice by writing its label.
b
(b: 4.73, a: 0.559)

A. LGGAMYYLEAD [PKHD1_Y452_E457D]
B. SGSIHYSCVPR [GLB1_Y57_R59C]
Param metric = SH2 binding enrichment; output whichever of A , B has the minimum value. Label of pick, please.
B
(B: 0.569, A: 1.1)

###

target system: FGFR1 (UniProt P11362)
Sequence (P11362 whole entry, looked up): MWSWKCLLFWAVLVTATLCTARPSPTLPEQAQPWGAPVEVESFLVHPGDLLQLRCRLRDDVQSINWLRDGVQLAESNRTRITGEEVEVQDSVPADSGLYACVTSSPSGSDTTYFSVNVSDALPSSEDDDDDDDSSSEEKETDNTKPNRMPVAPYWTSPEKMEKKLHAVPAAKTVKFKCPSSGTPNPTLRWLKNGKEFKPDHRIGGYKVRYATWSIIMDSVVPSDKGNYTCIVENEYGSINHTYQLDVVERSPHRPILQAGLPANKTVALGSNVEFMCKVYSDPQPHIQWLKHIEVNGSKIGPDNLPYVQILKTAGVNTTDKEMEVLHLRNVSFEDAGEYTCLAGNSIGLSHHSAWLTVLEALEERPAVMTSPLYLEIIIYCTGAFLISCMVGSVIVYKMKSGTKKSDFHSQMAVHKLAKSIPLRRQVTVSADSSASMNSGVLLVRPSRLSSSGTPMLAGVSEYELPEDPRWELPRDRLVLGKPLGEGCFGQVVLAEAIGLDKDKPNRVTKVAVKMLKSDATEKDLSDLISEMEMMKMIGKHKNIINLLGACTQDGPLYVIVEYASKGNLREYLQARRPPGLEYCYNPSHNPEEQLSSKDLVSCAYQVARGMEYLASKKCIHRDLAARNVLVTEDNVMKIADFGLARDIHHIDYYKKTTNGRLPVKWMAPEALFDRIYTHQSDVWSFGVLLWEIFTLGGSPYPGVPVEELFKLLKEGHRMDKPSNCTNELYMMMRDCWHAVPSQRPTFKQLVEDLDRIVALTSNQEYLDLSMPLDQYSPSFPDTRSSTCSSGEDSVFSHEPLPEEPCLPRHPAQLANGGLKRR
test details: phosphorylation enrichment, bacterial display (enrichment ratio); higher = better substrate or ligand; peptides without Tyr show the background
Measured phosphorylation enrichment of individual entries
Please give the numeric answer without any surrounding text.

>>> print(df.to_string())
             entry_sequence  recorded_measurement
0  SLTRLYVGENA [NLRP3_Y861]                 0.485

Any idea what phosphorylation enrichment was measured for NGLVAYKDGKL [PMM2_Y76] ?
0.431

Could you tell me which phosphorylation enrichment is on file for TDIVAYSGRVQ [SPTBN2_Y477] ?
0.214

Quick one: phosphorylation enrichment for GVMLLYYGRYN [ADGRD1_Y85_T82M] ?
0.556

Item under review: RHPREYQDLLN [DES_Y388_L385P] . Reported phosphorylation enrichment?
0.377

// returns reported phosphorylation enrichment for input LGRKLYSIATP [ABHD12_Y345_A349T]
0.612

Which phosphorylation enrichment value belongs to ELAKYYKLHHI [AK7_Y391_N389K] ?
0.516

phosphorylation enrichment lookup needed for QEGPEYWDEET [HLA-A_Y83_Q86E] , thanks.
1.24

I would be grateful if you could share the reported phosphorylation enrichment for VDTFWYKLLKR [EPM2A_Y86_F88L] .
0.439

Value lookup for phosphorylation enrichment; key = KVKPIYFHTQG [AR_Y916]
0.468

Given the entry FRASFYRKGGC [ALK_Y1283_YF] , report its measured phosphorylation enrichment.
0.531

Which phosphorylation enrichment is listed for EFKDAYKFAAD [BRDT_Y335_YF] ?
0.414

phosphorylation enrichment for FQNSLYAPDFS [FAM92A_Y226_R222Q_YF] ?
1.48

I am curious: what phosphorylation enrichment value has been reported for YIRKDYEACKA [BBS4_Y48] ?
0.466

Look at this sequence and give its reported phosphorylation enrichment. GSERRYTREGG [PTPRN2_Y139_S140T]
0.458

###

Tested on: AncSZ
test details: phosphorylation enrichment, bacterial display (enrichment ratio); higher = better substrate or ligand; peptides without Tyr show the background
property: phosphorylation enrichment
Format: numeric value only, no unit, no commentary.

See these solved cases before continuing.
In [3]: df
Out[3]:
                  entry_sequence  target_system  recorded_measurement
0      YPPDGYSRHYE [CTNND1_Y213]          AncSZ                 0.561
1  HSVLNYGVCVC [JAK2_Y613_L609S]          AncSZ                  0.91
2        RLRAAYNLVKR [PFKM_Y103]          AncSZ                  1.16

Param item = `SNKELYEKYMI` ; retrieve measured phosphorylation enrichment.
0.896

Would you kindly share the measured phosphorylation enrichment for RRVLVYGDRGA [QDPR_Y16_G18D] ?
0.585

What value of phosphorylation enrichment has been recorded for this entry: SSPRRYTIAAL [TTR_Y125_G121S]
0.437

###

target system: SHP2-C SH2
test details: SH2 binding enrichment of the phosphorylated peptide, bacterial display (enrichment ratio); higher = better substrate or ligand; peptides without Tyr show the background
property: SH2 binding enrichment

Examples with answers:
In [3]: df
Out[3]:
                     entry_sequence  target_system  recorded_measurement
0   AKAFIYASHIV [ZNF573_Y229_G224A]     SHP2-C SH2                 0.724
1      GSRGKYFSGFR [ATM_Y332_S333F]     SHP2-C SH2                 0.833
2        LGPSDYFGEIA [PRKAR1A_Y323]     SHP2-C SH2                 0.599
3  LFSGDCFRIQG [DDR2_Y740_Y740C_YF]     SHP2-C SH2                 0.524
4     CPFNLYAEQFS [HGD_Y40_L44F_YF]     SHP2-C SH2                 0.519
5        PNATLYKMSSI [SERPINA7_Y40]     SHP2-C SH2                 0.375

a. TSNQEYLYLSM [FGFR1_Y766_D768Y]
b. FCRHNYGVGES [HLA-DRB1_Y112_V115G_YF]
c. FFFDLYGGEKF [PTPN11_Y66_D61Y_YF]
d. HSPLRYTSILT [OR51B6_Y130_R125H]
e. PEADKYHLTFA [FGG_Y300_R301H_YF]
Highest SH2 binding enrichment first, then in falling order down to the smallest. // list labels; follow requested order
d, c, b, a, e

a. EMTAEYTCTRK [ACAD9_Y325_A326T]
b. FETVKYFNNER [ABCB7_Y345_YF]
Which has the higher SH2 binding enrichment, a or b ? // respond with label for picked entry
b
(b: 1.04, a: 0.638)

I. FTDPFYDFEIE [ZC3H18_Y372_A368T_YF]
II. NTVLGYFIGRI [GARS1_Y408]
Determine, for I and II , which has the greater value of SH2 binding enrichment. Let me know the label of the one you choose.
II
(II: 1.08, I: 0.657)

###

target system: Grb2 SH2 (UniProt P62993)
test details: SH2 binding enrichment of the phosphorylated peptide, bacterial display (enrichment ratio); higher = better substrate or ligand; peptides without Tyr show the background
property: SH2 binding enrichment

Some entries whose results are on file:
                      entry_sequence              target_system                property  recorded_measurement
0      QTWKTYVRHQQ [SFI1_Y164_Q167H]  Grb2 SH2 (UniProt P62993)  SH2 binding enrichment                  1.38
1  LNPDGYKKAFE [CPXM2_Y427_E428K_YF]  Grb2 SH2 (UniProt P62993)  SH2 binding enrichment                 0.945
2    RPYSPYIIRGM [LRP5_Y1531_R1529S]  Grb2 SH2 (UniProt P62993)  SH2 binding enrichment                  1.16
3      APTSGYREFVH [IL4R_Y575_Q576R]  Grb2 SH2 (UniProt P62993)  SH2 binding enrichment                 0.882

a. EVVGRYSVHFA [MLH1_Y183_N187Y_YF]
b. FVSIVCNDSGE [TSC2_Y1650_Y1650C]
c. CFVFFYSFLLK [PTEN_Y178_R173C_YF]
d. PTYENYANSTQ [SLC12A3_Y70_H69N]
Order the items by recorded SH2 binding enrichment; the first position goes to the largest value. Use the labels to give the ranking in the order requested.
d, c, a, b
(d: 19.9, c: 1.78, a: 0.909, b: 0.583)

###

target system: FGFR1 (UniProt P11362)
test details: phosphorylation enrichment, bacterial display (enrichment ratio); higher = better substrate or ligand; peptides without Tyr show the background
property: phosphorylation enrichment
Give the figure by itself; no unit, no explanation.

Below: 2 sequences and their reported phosphorylation enrichment.
>>> print(df.to_string())
                   entry_sequence                    property  recorded_measurement
0   TEQDPYNNIVH [MMUT_Y364_R369H]  phosphorylation enrichment                 0.501
1  TLQSMYGCDLG [HLA-B_Y123_V127L]  phosphorylation enrichment                 0.491

I have this sequence here, NKFVAYIESQG [KDM4B_Y34_YF] , and I need its recorded phosphorylation enrichment.
0.491

Please give the measured phosphorylation enrichment for this sequence: EHIEFYELDKK [PMM2_Y145_R141H]
0.487

// lookup phosphorylation enrichment for EEGESDVCSSD [DCX_Y125_Y125D]
0.497

Data request, read-out phosphorylation enrichment, for KRTFEYEAEKN [DENND2B_Y396_D399E]
0.511

For the sequence shown here, YRRITYYNWRH [PDE6B_Y556_H557Y] , give the reported phosphorylation enrichment.
0.497

Recorded phosphorylation enrichment for RESYKYFPSSL [CXXC1_Y218] , please?
0.51

Quick check: phosphorylation enrichment of GGDVIYKGFED [NFU1_Y194] ?
0.499

Sourced from the supplement of paper PMC10065799
